System: A2780Tax
Assay type: cell-based, human
TEST READOUT: R/S Ratio (A2780)
One number for each entry.

| COMPOUND | TEST TARGET | R/S Ratio (A2780) |
| --- | --- | --- |
| C/C(=C\c1csc(C)n1)C1C[C@@H]2N[C@@H]2CCCC(C)[C@H](O)[C@@H](C)C(=O)C(C)(C)[C@@H](O)CC(=O)O1 (stereo partly shown) | A2780Tax | 4.7 |

Record R/S Ratio (A2780) for all entries; do not skip any.
1. C/C(=C\c1csc(CN)n1)C1C[C@@H]2O[C@]2(C)CCCC(C)[C@H](O)[C@@H](C)C(=O)C(C)(C)[C@@H](O)CC(=O)O1 (stereo partly shown)
2. C/C(=C\c1csc(C)n1)C1C[C@H]2[C@@H](CCCC(C)[C@H](O)[C@@H](C)C(=O)C(C)(C)[C@@H](O)CC(=O)O1)N2C (stereo partly shown)

3
4.1

What measured R/S Ratio (A2780) goes with `C/C(=C\c1csc(C)n1)[C@@H]1C[C@@H]2O[C@]2(C)CCC[C@H](C)[C@H](O)[C@@H](C)C(=O)C(C)(C)[C@@H](O)CC(=O)O1` ?
2.5

====

Answer each item with its documented R/S Ratio (HCT116).
System: HCT116VM46
ASSAY DETAILS: In vitro MTS cytotoxicity assay, taxane-resistant HCT116VM46 (R/S ratio)
Format: cell-based, human
STATED CONDITIONS: R/S ratio = HCT116VM46 IC50/HCT116 IC50
Protocol: In vitro cytotoxicity was assessed in tumor cells using a tetrazolium-based colorimetric assay which takes advantage of the metabolic conversion of MTS (3-(4,5-dimethylthiazol-2-yl)-5-(3-carboxymethoxyphenyl)-2-(4-sulphenyl)-2H-tetrazolium, inner salt) to a reduced form that absorbs light at 492 nm. […] The incubation was continued for 3 hours, then the absorbency of the medium at 492 nm was measured with a spectrophotometer to obtain the number of surviving cells relative to control populations. […]
Give bare numbers.

| COMPOUND | R/S Ratio (HCT116) |
| --- | --- |
| C/C(=C\c1csc(C)n1)C1C[C@H]2[C@@H](CCCC(C)[C@H](O)[C@@H](C)C(=O)C(C)(C)[C@@H](O)CC(=O)O1)N2C (some centres unmarked) | 0.6 |

Provide reported R/S Ratio (HCT116) for each item, in the same order as listed.
1. C/C(=C\c1csc(CN)n1)C1C[C@@H]2O[C@]2(C)CCCC(C)[C@H](O)[C@@H](C)C(=O)C(C)(C)[C@@H](O)CC(=O)O1 (some centres unmarked)
2. C/C(=C\c1csc(C)n1)C1C[C@@H]2N[C@@H]2CCCC(C)[C@H](O)[C@@H](C)C(=O)C(C)(C)[C@@H](O)CC(=O)O1 (some centres unmarked)
3. C/C(=C\c1csc(C)n1)[C@@H]1C[C@@H]2O[C@]2(C)CCC[C@H](C)[C@H](O)[C@@H](C)C(=O)C(C)(C)[C@@H](O)CC(=O)O1

1. 14.8
2. 3.1
3. 0.5

Any idea what R/S Ratio (HCT116) was measured for `CC(=O)O[C@H]1C(=O)[C@@]2(C)[C@H]([C@H](OC(=O)c3ccccc3)[C@]3(O)C[C@H](OC(=O)[C@H](O)[C@@H](NC(=O)c4ccccc4)c4ccccc4)C(C)=C1C3(C)C)[C@]1(OC(C)=O)CO[C@@H]1C[C@@H]2O` ?
150
